# system tested: ORF 73 (Human herpesvirus 8)
# assay text: Inhibition of fluorescent labelled LBS3 DNA binding to human herpesvirus 8 C-terminal His-tagged LANA oligomerization deficient mutant DBD (1008 to 1146 residues) expressed in Escherichia coli BL21 (DE3) preincubated for 60 mins followed by fluorescent labelled LBS2 addition and measured after 90 mins by fluorescence polarization assay
# Design: species or system Human gammaherpesvirus 8
Kindly supply the reported pIC50 values for the records listed here.
By convention, pIC50 is the negative base-10 log of a molar concentration.

Q: # return recorded pIC50 for entry `Nc1ccccc1-c1cn(-c2ccc(C(=O)O)cc2)nn1`
Result: 4.59

Q: Item `Nc1ccccc1-n1cc(-c2ccc(C(=O)O)cc2)nn1` : provide pIC50
Result: 4.59

Q: Supply measured pIC50 of `O=C(O)c1ccc(-n2cc(C3(O)CCCC3)nn2)cc1` in your reply.
Result: 4.41

Q: Determine its reported pIC50: `Nc1ccc(-c2cn(-c3ccc(C(=O)O)cc3)nn2)cc1`
Result: 4.92

Q: Return pIC50 (reported value) for this compound: `Nc1cccc(-c2cn(-c3ccc(C(=O)O)cc3)nn2)c1`
Result: 3.97

Q: Please look at this compound and report its pIC50: `O=C(O)c1ccc(-c2cn(-c3cccnc3)nn2)cc1`
Result: 4.72
